TARGET_OF_ASSAY: CCR1 (Homo sapiens, UniProt P32246)
Construct: THP-1 monocytic leukemia cells are combined with 100 μg of LS WGA PS beads; endogenous in cells
PROCEDURE_TEXT: CCR1 ligand binding scintillation proximity assay (SPA): antagonism of MIP-1α binding to human THP-1 cells
CONDITION_SET: THP-1 monocytic leukemia cells, 0.1 nM [125I]-MIP-1α, 12 h at room temperature
OBSERVATION_TYPE: pIC50
One number for each entry, as −log10 of the molar value.

MOLECULE	NUMERIC_READOUT
CC(C)(CC(=O)N1CC[C@](O)(c2ccc(Cl)cc2)C(C)(C)C1)NC(=O)c1cccc(C(N)=O)c1	8.74
CC(C)(CC(=O)N1CC[C@](O)(c2ccc(Cl)cc2)C(C)(C)C1)NC(=O)C1CCCC1	8.77

Consider the following items and state reported pIC50 for each.
1. CC1(C)CN(C(=O)CCNC(=O)c2ccccc2)CC[C@]1(O)c1ccc(Cl)cc1
2. CC(=O)N[C@@H]1CC[C@@H](C(=O)N[C@H](C)CC(=O)N2CC[C@](O)(c3ccc(Cl)cc3)C(C)(C)C2)C1

[7.38, 7.36]

Consider the following items and state reported pIC50 for each.
1. CCOC(=O)c1cc(C2(O)CCN(C(=O)CC(C)(C)NC(=O)c3ccccc3)CC2(C)C)ccc1Cl (stereo not shown)
2. CC(C)(CC(=O)N1CCC(O)(c2ncc(Cl)cc2Cl)C(C)(C)C1)NC(=O)c1ccccc1 (stereo not shown)
3. CC(C)[C@@H](CNC(=O)Cc1ccccc1)C(=O)N1CC[C@](O)(c2ccc(Cl)cc2)C(C)(C)C1

[6.00, 6.10, 6.09]

###

TARGET_OF_ASSAY: CCR1 (Homo sapiens, UniProt P32246)
Construct: THP-1 monocytic leukemia cells are combined with 100 μg of LS WGA PS beads; endogenous in cells
Sequence (P32246 1-355): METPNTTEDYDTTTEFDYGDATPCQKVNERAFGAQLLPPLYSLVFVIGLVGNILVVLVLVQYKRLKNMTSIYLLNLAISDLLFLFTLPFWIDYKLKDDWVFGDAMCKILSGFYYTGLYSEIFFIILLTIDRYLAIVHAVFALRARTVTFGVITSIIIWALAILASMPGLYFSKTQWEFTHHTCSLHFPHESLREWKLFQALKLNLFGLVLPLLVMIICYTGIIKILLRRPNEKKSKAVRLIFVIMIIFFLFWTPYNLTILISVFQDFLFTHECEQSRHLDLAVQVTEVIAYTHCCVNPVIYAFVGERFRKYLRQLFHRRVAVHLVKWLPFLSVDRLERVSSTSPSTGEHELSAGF
PROCEDURE_TEXT: CCR1 ligand binding scintillation proximity assay (SPA): antagonism of MIP-1α binding to human THP-1 cells
CONDITION_SET: THP-1 monocytic leukemia cells, 0.1 nM [125I]-MIP-1α, 12 h at room temperature
Procedure: Antagonism of MIP-1α Binding to Human THP-1 Cells CCR1 ligand binding scintillation proximity assay (SPA) description: For radioligand competition studies, a final concentration of 1×10^5 THP-1 monocytic leukemia cells are combined with 100 μg of LS WGA PS beads (Amersham, Cat.#: RPNQ 0260) in 40 μl of assay buffer (RPMI 1640 without phenol red, 50 mM HEPES, 5 mM MgCl2, 1 mM CaCl2, 0.1% BSA). […] Sealed assay plates are incubated at room temperature for 12 h then analyzed by LEADseeker™. […]
Field: pIC50. Provide a value for each of the compounds that follow.
Numbers only, as −log10 of the molar value.

COMPOUND	TARGET_OF_ASSAY	pIC50
CC(C)(CC(=O)N1CC[C@](O)(c2ccc(Cl)cc2)C(C)(C)C1)NC(=O)c1cccc(-n2cnnn2)c1	CCR1 (Homo sapiens, UniProt P32246)	8.66
CC(CNC(=O)C1CCCC1)C(=O)N1CC[C@](O)(c2ccc(Cl)cc2)C(C)(C)C1 (some centres unmarked)	CCR1 (Homo sapiens, UniProt P32246)	7.38
CC1(C)CN(C(=O)CC2(NC(=O)c3ccccc3)CCOCC2)CC[C@]1(O)c1ccc(Cl)cc1	CCR1 (Homo sapiens, UniProt P32246)	5.93
C[C@H](NC(=O)NC(C)(C)CC(=O)N1CC[C@](O)(c2ccc(Cl)cc2)C(C)(C)C1)C(C)(C)O	CCR1 (Homo sapiens, UniProt P32246)	8.72
Cc1cc(C)c(C(=O)NC(C)(C)CC(=O)N2CC[C@](O)(c3ccc(Cl)cc3)C(C)(C)C2)cn1	CCR1 (Homo sapiens, UniProt P32246)	8.82
CC(NC(=O)c1ccccc1)C(C)C(=O)N1CC[C@](O)(c2ccc(Cl)cc2)C(C)(C)C1 (single isomer, unassigned) [Example 72a]	CCR1 (Homo sapiens, UniProt P32246)	5.93

Consider the following items and state reported pIC50 for each.
1. CC(C)(CC(=O)N1CCC(O)(c2ccc(C#N)cc2)C(C)(C)C1)NC(=O)c1ccccc1 (centres unmarked)
2. C[C@H](CC(=O)N1CC[C@](O)(c2ccc(Cl)cc2)C(C)(C)C1)NC(=O)[C@@H]1CC[C@@H](NC(=O)OC(C)(C)C)C1

1: 7.34; 2: 7.33
